Reported z-score values for the following compounds.
Test: blockers of DNA damage checkpoint Chk1 activation – imaging, HeLa, hydroxyurea, phospho-Chk1 nuclear intensity, primary screen (AID 1187); further: test concentration not given here
Settings: hydroxyurea-induced phospho-Chk1 immunofluorescence imaging, higher = more signal
Give only the figure.

Q) Report z-score for "NC(=O)[C@@H]1[C@H]2C(=O)O[C@H](c3ccccc3)[C@H](c3ccccc3)N2[C@H](c2ccc(O)cc2)[C@@]12C(=O)Nc1ccc(C#CC3=CCCCC3)cc12" please.
A) 0.518

Q) Quick one: z-score of "CCCC[C@@H]1C[C@H]1[C@@H](NC(=O)c1cccnc1)c1ccc(Cl)cc1" ?
A) -0.437

Q) Name the recorded z-score for "O=C(CS)NCCCCCNC(=O)[C@H]1C[C@H]2C(=O)NCC(=O)N2[C@H]1c1cccc(OCCO)c1" .
A) -0.321

Q) Recorded z-score of "O=C(NC1CC1)[C@@H]1c2ccccc2C(=O)N(C2Cc3ccccc3C2)[C@H]1c1ccc(CO)cc1" , please.
A) 0.0084

Q) I would be grateful if you could share the reported z-score for "O=C1O[C@H](c2ccccc2)[C@H](c2ccccc2)N2[C@H]1[C@@H](C(=O)N1CCN(c3ncccn3)CC1)[C@]1(C(=O)Nc3ccc(C#CC4=CCCCC4)cc31)[C@H]2c1ccccc1OCCO" .
A) 0.188

Q) Recorded z-score of O=C1C2C=CC(C(O)c3ccc(-c4ccccc4)s3)N(Nc3ccccc3)C2C(=O)N1c1ccccc1 (configuration not stated) , please.
A) 0.251

Q) Param item = "CCCCCCc1nc(-c2ccc(-c3ccc(Cl)c(Cl)c3)o2)cc2c1[Si](C(C)C)(C(C)C)O[C@H]2c1ccccc1" ; retrieve measured z-score.
A) -0.449

###

Listing of recorded z-score by entry.
Assay: resazurin metabolic signal in HepG2 cells – cell-based, resazurin fluorescence, 24 h, PK04 Diversity Set, profiling panel (AID 1172); further: test concentration not given here
Conditions: HepG2 viability, higher = more signal
Answer as a number with no unit attached.

See these solved cases before continuing.
molecule: C=CC[C@]1(C(=O)N2CCOCC2)N=C(c2ccc(OCCCO)cc2)O[C@H]1c1ccccc1N=[N+]=[N-]
reported-measurement: 0.101
//
molecule: [N-]=[N+]=Nc1ccccc1[C@H]1OC(c2ccc(OCCCO)cc2)=N[C@@]1(CCS(=O)(=O)c1ccccc1)C(=O)NCc1ccccc1
reported-measurement: 0.614
//
molecule: COC(=O)[C@@]1(Cc2ccc(F)cc2)[C@H]2c3cc(C(=O)N(C)C)n(Cc4cc(C)n(C)n4)c3C[C@H]2CN1C(=O)c1ccccc1
reported-measurement: -0.806
//
molecule: O=C1C2C=CC(C(O)C=Cc3ccc([N+](=O)[O-])cc3)N(n3cnnc3)C2C(=O)N1Cc1ccccc1 (stereo not given)
reported-measurement: 0.178
//
molecule: [N-]=[N+]=Nc1ccccc1C[C@@]1(C(=O)N2CCCCC2)N=C(c2ccc(OCCCO)cc2)O[C@@H]1c1ccccc1
reported-measurement: 1.9

Q) Recorded z-score for "C=CCNC(=O)[C@@H]1[C@H]2C(=O)O[C@H](c3ccccc3)[C@H](c3ccccc3)N2[C@H](c2ccc(OCCO)cc2)[C@@]12C(=O)N(C(=O)OCCOC)c1ccc(C#CCNC(N)=O)cc12" , please?
A) -1.09

Q) Suppose we examine the molecule "C#CCN(C/C=C/c1ccccc1)[C@H](CO)c1ccccc1" ; what z-score value has been reported?
A) -0.832
